Every entry's value here was drawn from patent US20230331820A1.

Target: gEgI WT: HSV2 gEgI heterodimer comprising gE and gI wildtype ectodomains (HSV2, UniProt P89475 21-416; P06764 21-256)
Assay: SPR binning; gEgI captured by mAb 34
Exercise: state measured RU for each of the binders provided.
Give bare numbers, in RU.

Here are 3 binders. What values of RU were reported for them?
1. mAb clone 39 (antibody, V domains shown) VH: EVKLVESGGGLVQPGGSLKLSCAASGFTFSSYTMSWVRQTPEKRLEWVAYISNGGGSTYYPDTVKGRFTISRDNAKNTLYLQMSSLKSEDTAMYYCARGVSYYGDLYYFDYWGQGTTLTVSS VL: DVVVTQTPLSLPVSFGDQVSISCRSSQSLANSYGNTYLSWYLHKPGQSPQLLIYGISNRFSGVPDRFSGSGSGTDFTLKISTIKPEDLGMYYCLQGTHQPWTFGGGTKLEIK
2. mAb clone 17 (antibody, V domains shown) VH: QVQLKESGPGLVAPSQSLSITCTVSGFSLTSYGVHWVRQPPGKGLEWLGVIWAGGSSNYNSALMSRLSISKDNSKSQVFLKMNSLQTDDTAMYYCARDGYGYVYYAMDYWGQGTSVTVSS VL: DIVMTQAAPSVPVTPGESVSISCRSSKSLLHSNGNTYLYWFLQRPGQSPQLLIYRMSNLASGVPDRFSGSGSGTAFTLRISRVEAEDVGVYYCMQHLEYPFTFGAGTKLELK
3. mAb clone 20 (antibody, V domains shown) VH: QVQLQQSGAELVRPGTSVKVSCKASGYAFTNYLIEWVKQRPGQGLEWIGVINPGSGGTNYNEKFKGKATLTADKSSSTAYMQLSSLTSDDSAVYFCARSHYGNYYAMDYWGQGTSVTVSS VL: NIVLTQSPASLAVSLGQRATISCRASESVDSYGNSFMHWYQQKPGQPPKLLIYLASNLESGVPARFSGSGSRTDFTLTIDPVEADDAATYYCQQNNEDPWTFGGGTKLEIK

### Response
1. -6.4
2. -9.4
3. 13.4
